For each entry below, report its kon value.
measurement target: T1, Human IL-18Rα extracellular domain (human, UniProt Q13478 22-329, biotinylated (site not stated))
T1 construct: also called IL-18 receptor
T1 sequence: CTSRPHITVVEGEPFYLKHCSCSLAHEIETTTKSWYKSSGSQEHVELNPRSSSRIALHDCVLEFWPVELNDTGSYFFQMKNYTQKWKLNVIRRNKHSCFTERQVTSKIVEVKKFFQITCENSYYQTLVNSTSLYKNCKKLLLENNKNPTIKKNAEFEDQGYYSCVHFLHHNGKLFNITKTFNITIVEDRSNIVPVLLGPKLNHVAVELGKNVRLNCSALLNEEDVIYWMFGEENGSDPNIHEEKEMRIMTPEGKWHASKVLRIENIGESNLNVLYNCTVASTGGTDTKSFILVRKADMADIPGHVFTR
assay method text: SPR, Biacore 8K, 37 C, biotinylated target on SA chip, single-cycle kinetics
One number for each entry, in M⁻¹ s⁻¹.

Human IL-18 T99C/P124C (ligand, Made in mammalian cells) YFGKLESKLSVIRNLNDQVLFIDQGNRPLFEDMTDSDSRDNAPRTIFIISMYKDSQPRGMAVCISVKSEKISTLSSENKIISFKEMNCPDNIKDTKSDIIFFQRSVPGHDNKMQFESSSYEGYFLASEKERDLFKLILKKEDELGDRSIMFTVQNED    500000

Dear colleague, could you send me kon for each of the items below? Thanks.
1. Human IL-18 A162C/I185C (ligand, Made in mammalian cells) YFGKLESKLSVIRNLNDQVLFIDQGNRPLFEDMTDSDSRDNAPRTIFIISMYKDSQPRGMAVTISVKSEKISTLSSENKIISFKEMNPPDNIKDTKSDIIFFQRSVPGHDNKMQFESSSYEGYFLCSEKERDLFKLILKKEDELGDRSCMFTVQNED
2. Human IL-18 hCS (ligand) YFGKLESKLSVIRNLNDQVLFIDQGNRPLFEDMTDSDSRDNAPRTIFIISMYKDSQPRGMAVTISVKSEKISTLSSENKIISFKEMNPPDNIKDTKSDIIFFQRSVPGHDNKMQFESSSYEGYFLASEKERDLFKLILKKEDELGDRSIMFTVQNED

[A]
["3.11e+06", 32000]
